- Target or test system: MAPKAPK5 (human) (UniProt Q8IW41)
- Sequence (Q8IW41 whole entry, looked up): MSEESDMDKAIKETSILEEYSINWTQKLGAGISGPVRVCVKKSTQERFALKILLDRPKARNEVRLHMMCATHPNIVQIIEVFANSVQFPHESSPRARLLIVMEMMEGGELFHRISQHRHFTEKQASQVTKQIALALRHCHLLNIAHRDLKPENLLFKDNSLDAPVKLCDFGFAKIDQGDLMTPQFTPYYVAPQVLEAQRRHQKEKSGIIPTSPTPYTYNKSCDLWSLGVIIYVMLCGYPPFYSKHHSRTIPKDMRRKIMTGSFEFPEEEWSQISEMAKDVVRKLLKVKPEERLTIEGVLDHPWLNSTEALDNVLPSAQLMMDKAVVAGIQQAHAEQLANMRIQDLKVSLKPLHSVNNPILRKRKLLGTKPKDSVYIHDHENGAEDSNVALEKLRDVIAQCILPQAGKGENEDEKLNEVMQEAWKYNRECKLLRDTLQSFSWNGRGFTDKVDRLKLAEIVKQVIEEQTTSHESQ
- Test method notes: KINOMEscan competition binding
- Measurement conditions: compound 10.0 µM
Recorded metric: kinase still bound, per cent of control (%)
Quick reminder: number only, in %, skip the unit.

Ask | Field request: kinase still bound, per cent of control | item: `COc1cc2ncnc(-n3nc(-c4ccccn4)nc3N)c2cc1OC`
Reply | 100

Ask | Field request: kinase still bound, per cent of control | item: `O=C1NC(=O)/C(=C/c2ccc3nccc(-c4ccncc4)c3c2)S1`
Reply | 0.2

Ask | Endpoint output: kinase still bound, per cent of control of `CN(C)C/C=C/C(=O)Nc1ccc(C(=O)Nc2cccc(Nc3nccc(-c4cccnc4)n3)c2)cc1` . Value?
Reply | 100

Ask | # lookup: kinase still bound, per cent of control of `COc1cc2ncn(-c3cc(OCc4ccccc4C(F)(F)F)c(C(N)=O)s3)c2cc1OC`
Reply | 91
